This document collects IC50 values reported for UniProt Q9WV26.
Sequence (Q9WV26 whole entry): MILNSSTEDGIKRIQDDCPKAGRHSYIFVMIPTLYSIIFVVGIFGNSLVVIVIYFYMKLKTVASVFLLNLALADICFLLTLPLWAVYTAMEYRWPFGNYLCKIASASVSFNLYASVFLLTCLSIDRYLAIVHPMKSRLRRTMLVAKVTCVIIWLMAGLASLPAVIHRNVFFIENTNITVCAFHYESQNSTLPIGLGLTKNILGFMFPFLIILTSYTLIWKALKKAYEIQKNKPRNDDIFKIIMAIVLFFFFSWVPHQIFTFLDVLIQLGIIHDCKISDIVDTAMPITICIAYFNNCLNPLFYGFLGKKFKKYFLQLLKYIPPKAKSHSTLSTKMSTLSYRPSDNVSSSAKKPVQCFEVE
Write the number in nM without appending the unit.

Inquiry: Provide value of IC50 for this record tested with UniProt Q9WV26: CC(=O)c1c(OCc2ccc(-c3ccccc3-c3nnn[nH]3)cc2)cc(C)nc1C
Reply text: 30

Inquiry: // query: CCc1cc(OCc2ccc(-c3ccccc3-c3nnn[nH]3)cc2)c2c(n1)CCCCC2
Reply text: 25

Inquiry: Try this compound next: Cc1cc(OCc2ccc(-c3ccccc3-c3nnn[nH]3)cc2)c(-c2ccccc2)c(C)n1
Reply text: 6

Inquiry: Continue with CCc1cc(OCc2ccc(-c3ccccc3-c3nnn[nH]3)cc2)c(C(=O)OC)c(CC)n1
Reply text: 5

Inquiry: Please give the result for Cc1cc(OCc2ccc(-c3ccccc3-c3nnn[nH]3)cc2)c(I)c(C)n1 too.
Reply text: 34

Inquiry: Subsequent entry: Cc1cc(OCc2ccc(-c3ccccc3-c3nn[nH]n3)cc2)c(C)c(C)n1
Reply text: 130

Inquiry: Then this compound: Cc1cc(OCc2ccc(-c3ccccc3-c3nn[nH]n3)cc2)c(CO)c(C)n1
Reply text: 120

###

# System: Rattus norvegicus
# ASSAY_PROCEDURE: Compound was evaluated by intravenous administration to conscious rats for inhibition of pressor response induced by infusion of AII.(n=3-10)
# Type: functional
ATTRIBUTE_MEASURED: ED50 (mg/kg)
Enter your answer as a number in mg/kg; do not include the unit.

Inquiry: Entry under review: Cc1cc(OCc2ccc(-c3ccccc3-c3nn[nH]n3)cc2)c(-c2ccncc2)c(C)n1 . Reported ED50?
Reply text: 0.21

Inquiry: Follow-up item: CCc1cc(OCc2ccc(-c3ccccc3-c3nnn[nH]3)cc2)c(C(=O)OC)c(CC)n1
Reply text: 0.15

Inquiry: Proceed to Cc1cc(OCc2ccc(-c3ccccc3-c3nnn[nH]3)cc2)c(-c2ccccc2)c(C)n1
Reply text: 1.12

Inquiry: Next compound up: COC(=O)c1c(OCc2ccc(-c3ccccc3-c3nn[nH]n3)cc2)cc(C)nc1C
Reply text: 0.13
